Here is a set of molecules with reported IC50 for Histone deacetylase 8 (Homo sapiens), compiled from the literature.

>  <molecule>
CN1CC[C@@H](N2CCc3cc(C(=O)NO)cc(F)c3C2)CC12CCC2 (single isomer, unassigned)

>  <IC50>
1000 to 10000 nM

$$$$
>  <molecule>
C/C=C1\NC(=O)c2cccc(n2)CNC(=O)C[C@@H](/C=C/CCSC=O)OC(=O)[C@H](C(C)C)NC1=O

>  <IC50>
41 nM

$$$$
>  <molecule>
C/C=C1\NC(=O)c2nc(ccc2F)CNC(=O)C[C@@H](/C=C/CCSC(=O)CC)OC(=O)[C@H](C(C)C)NC1=O

>  <IC50>
25 nM

$$$$
>  <molecule>
Cc1ccc(Cn2ccc3ccc(C(=O)NO)cc32)cc1

>  <IC50>
< 100 nM

$$$$
>  <molecule>
O=C(NO)c1cnc2c(c1)CCN([C@H]1CCCC3(CCC3)C1)C2 (single isomer, unassigned)

>  <IC50>
1000 to 10000 nM

$$$$
>  <molecule>
C/C=C1\NC(=O)c2nc(ccc2SC)CNC(=O)C[C@@H](/C=C/CCS)OC(=O)[C@H](C)NC1=O

>  <IC50>
59 nM

$$$$
>  <molecule>
CC[C@@H]1CCCN1Cc1ccc(C(=O)NO)cc1F

>  <IC50>
1000 to 10000 nM

$$$$
>  <molecule>
O=C(Cn1ccc2ccc(C(=O)NO)cc21)Nc1ccccc1

>  <IC50>
< 1000 nM

$$$$
>  <molecule>
C/C=C1\NC(=O)c2cc(SC)cc(n2)CNC(=O)C[C@@H](/C=C/CCSC(C)=O)OC(=O)[C@H](C(C)C)NC1=O

>  <IC50>
752 nM

$$$$
>  <molecule>
CN(C)c1cccc(-c2nnc(Sc3c(F)cc(C(=O)NO)cc3F)n2C)c1

>  <IC50>
548 nM

$$$$
>  <molecule>
O=C(NO)c1cnc2c(c1)CCN([C@@H]1CCCC3(CCC3)C1)C2 (single isomer, unassigned)

>  <IC50>
10000 to 100000 nM

$$$$
>  <molecule>
CC(c1ccccc1)n1ccc2ccc(C(=O)NO)cc21 (centres unmarked)

>  <IC50>
< 100 nM

$$$$
>  <molecule>
O=C(/C=C/c1ccc(CNCC2CCCCC2)cc1)NO

>  <IC50>
9600 nM

$$$$
>  <molecule>
O=C(NO)c1cc(F)c2c(c1)CCN(C1CCC3(CC1)CN(Cc1ccccc1)C3)C2

>  <IC50>
1000 to 10000 nM

$$$$
>  <molecule>
O=C(NO)c1ccc2ccn(CC=Cc3ccccc3)c2c1

>  <IC50>
< 100 nM

$$$$
>  <molecule>
O=C(NO)c1ccc2ccn(CCOc3cccc(F)c3)c2c1

>  <IC50>
< 1000 nM

$$$$
>  <molecule>
O=C(NO)c1cc(F)c2c(c1)CCN(C1CCC13CN(C1CC1)C3)C2 (centres unmarked)

>  <IC50>
1000 to 10000 nM

$$$$
